Where do these numbers come from? They come from PubChem BioAssay.

Procedure summary: reduction of polyQ htt aggregates in cells – imaging, exon1htt(103Q)mCFP cells, high-content imaging, primary screen (AID 483);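 further: compound exposure lasted 3 days before fixation; percent of the per-plate median nuclei count of sample wells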
Condition info: exon1htt(103Q)mCFP cell line, aggregate imaging, at 2 µM; measured here: cell count, toxicity
Measurement type: nuclei count (%)
// return numeric value only (unit: %, not printed)

Please review the following examples before continuing.
Compound	Measurement type	Reading unit	Numeric value
Cc1ccc2cc(CN(Cc3ccc(F)cc3)Cc3nnnn3C3CCCC3)c(=O)[nH]c2c1	nuclei count	%	103
Cc1cc(C(=O)CSc2nc3ccccc3[nH]2)c(C)n1C	nuclei count	%	113
CCCNc1nc(N2CCOCC2)nc(N2CCOCC2)n1	nuclei count	%	92.2

Q: Fill in nuclei count for record COc1ccccc1Nc1ccc(C(=O)NC2CCCCC2)cn1
Result: 108

Q: Fill in nuclei count for record Cc1cc(C)cc(NC(=O)CSc2nnc(Cc3cccn3C)n2-c2ccc(F)cc2)c1
Result: 12.9

Q: Fill in nuclei count for record Cc1nc2ccc(N3C(=O)CCC3=O)cc2[nH]1
Result: 92.3

----------
Procedure summary: endothelial E-selectin expression blockers – imaging, HUVEC, immunofluorescence, MLSMR starter and 10KST1 sets, primary screen (AID 487);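 further: 100% = median nuclei count of all wells on the same plate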
Condition info: HUVEC TNFalpha-induced E-selectin immunofluorescence imaging, at 2 µM; measured here: cell number, toxicity
Measurement type: nuclei count (%)
// return numeric value only (unit: %, not printed)

Please review the following examples before continuing.
Compound	Measurement type	Numeric value
CC1(C)OC(=O)C(=CNc2ccccc2F)C(=O)O1	nuclei count	96.8
Oc1ccc(N2CCN(C(c3ccncc3)c3nnnn3C3CCCC3)CC2)cc1 (stereo not drawn)	nuclei count	115
COc1ccc(-c2noc(-c3ccccc3C(=O)Nc3cccnc3)n2)cc1OC	nuclei count	115

Q: Fill in nuclei count for record CC(=O)c1ccccc1OCCn1nnc(-c2ccc(C)cc2)n1
Result: 109

----------
Target desc: Voltage-gated potassium channel subunit beta-2 (Rattus norvegicus)
Procedure summary: inhibitors of rat Kvbeta2 reductase activity – biochemical, NADPH fluorescence, primary screen (AID 622);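 further: slope of raw intensity against log time taken from 70 to 1610 s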
Condition info: recombinant KvBeta, 4-cyanobenzaldehyde reduction, at 10 µM, stronger effect = higher value
// reported fluorescence slope per item
Number only, please.

Q: Fill in fluorescence slope for record COC(=O)CCC(=O)Nc1cccc(Cl)c1
Result: -0.593

Q: Fill in fluorescence slope for record COc1ccccc1-c1nc2n(n1)C(c1ccc(Cl)cc1)C(C(N)=O)=C(C)N2 (stereo not given)
Result: -0.464

Q: Fill in fluorescence slope for record N#Cc1c2n(c(=S)n(-c3ccccn3)c1=O)CCCCC2
Result: -0.477

----------
Procedure summary: inhibitors of TNFa-induced NFkB p65 translocation, primary screen, imaging, HUVEC, MLSMR starter and 10KST1 sets (AID 438);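 further: compound added about 3h40 before a 20 min TNFalpha stimulation; signal is the nuclear over cytoplasmic p65 intensity ratio per well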
Condition info: HUVEC TNFa-induced p65 nuclear translocation; at 2 µM, stronger effect = higher value, 0% TNFa-plus-vehicle, 100% no-TNFa wells
Measurement type: inhibition (%)
// return numeric value only (unit: %, not printed)

Please review the following examples before continuing.
Compound	Reading unit	Numeric value
COc1ccc(NC(=O)CSc2nnc(Cc3cccn3C)n2-c2ccc(F)cc2)cc1OC	%	-1.3
CCOC(=O)c1c(NC(=O)Cn2c(=O)oc3ccccc32)oc(C)c1C(C)=O	%	-5.4
CCN(Cc1cc2ccccc2[nH]c1=O)S(=O)(=O)c1ccccc1	%	7.5
CCCCOCCCNC(=O)c1ccccc1OCC	%	8.5
Cc1cc(C)c2c(n1)nn1c(N3CCN(c4cccc(Cl)c4)CC3)cc(C)nc21	%	-7.1
S=c1[nH]nc(Cc2ccccc2)n1-c1ccccc1	%	-5.5
CCOC(=O)C1CCN(C(=O)COc2ccc(Cl)cc2Cl)CC1	%	-5.1
CN(C)CCCN1C(=O)c2oc3ccccc3c(=O)c2C1c1cccs1 (stereo unspecified)	%	-1.2
Cn1cnc2cc(NC(=O)c3ccc(Cl)cc3)ccc21	%	6.9
CC(=O)c1cc(-c2ccc(F)cc2)n(CCC(=O)Nc2cc(C)[nH]n2)c1C	%	0

Now look at this one.
Q: Fill in inhibition for record O=C(NCCO)c1cc2ccccc2cc1O
Result: -8.2

----------
Procedure summary: reduction of polyQ htt aggregates in cells – imaging, exon1htt(103Q)mCFP cells, high-content imaging, primary screen (AID 483);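 further: compound exposure lasted 3 days before fixation; percent of the per-plate median nuclei count of sample wells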
Condition info: exon1htt(103Q)mCFP cell line, aggregate imaging, at 2 µM; measured here: cell count, toxicity
Measurement type: nuclei count (%)
// return numeric value only (unit: %, not printed)

Please review the following examples before continuing.
Molecule	Reading unit	nuclei count
CCC(C)NC(=O)c1cc(CC(C)C)on1 (centres undefined)	%	80.5
Cc1ccc2c(c1)N(CC(=O)N1CCCCC1c1cccnc1)C(=O)CO2 (centres undefined)	%	104
O=c1oc2ccccc2cc1NCc1ccccc1O	%	115
O=C1CCCC2=C1C1(CCCC1)N=C(Nc1nc3ccccc3s1)N2	%	139
CN(C)C(=O)Cn1c(SCC(=O)NC2CCCCC2)nc2ccccc21	%	112

Q: Fill in nuclei count for record Cc1nc2c(-c3ccccc3)c(C)nn2c(C)c1CCC(=O)NCc1ccco1
Result: 84.3

Q: Fill in nuclei count for record CC(C)(C)C(=O)/C=C(\N)c1ccccn1
Result: 89.1

Q: Fill in nuclei count for record CN1CCN(C(=O)NC2CCCN2S(=O)(=O)c2ccc(Cl)cc2)CC1 (centres undefined)
Result: 106

Q: Fill in nuclei count for record CCOC(=O)Nc1c(O)ccc2oc(C)c(-c3ccccc3)c12
Result: 104

Q: Fill in nuclei count for record COCCNC(=O)CN1C(=O)CSc2ncccc21
Result: 115

----------
// reported fluorescence slope per item
Target desc: Voltage-gated potassium channel subunit beta-2 (Rattus norvegicus)
Procedure summary: inhibitors of rat Kvbeta2 reductase activity – biochemical, NADPH fluorescence, primary screen (AID 622);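 further: slope of raw intensity against log time taken from 70 to 1610 s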
Condition info: recombinant KvBeta, 4-cyanobenzaldehyde reduction, at 10 µM, stronger effect = higher value
Number only, please.

Compound	Numeric value
CCc1nc(N)c(C#N)c(-c2ccncc2)c1C	-0.605
COC(=O)c1cc2oc(C)cc2n1CC(=O)Nc1ccc(C)c(C)c1	-0.337
Cc1ccccc1OCCCN1C(=O)C(=O)c2cccc(C)c21	-0.575
COc1ccc(CCn2c(-c3ccco3)nc3nc4ccccc4nc32)cc1	-0.445
O=C(Nc1ccc(N2CCOCC2)cc1)c1cc2ccccc2o1	-0.479

Q: Fill in fluorescence slope for record CS(=O)(=O)NCC(c1cccnc1)N1CCN(c2ccc(F)cc2)CC1 (stereo unspecified)
Result: -0.34

Q: Fill in fluorescence slope for record COCCCNC(=O)CCn1c(=O)c2ccccc2n(CC(=O)Nc2ccc(C)cc2C)c1=O
Result: -0.502

Q: Fill in fluorescence slope for record Cc1ccc(-c2nn3c(C)nnc3s2)cc1N
Result: -0.405

Q: Fill in fluorescence slope for record O=C(c1cc(-c2cccc(O)c2)on1)N1CCN(C(c2ccccc2)c2ccccc2)CC1
Result: -0.601

Q: Fill in fluorescence slope for record COc1ccccc1C(=O)Nc1ccc(S(=O)(=O)N2CCCC2)cc1
Result: -0.584

Q: Fill in fluorescence slope for record CC1(C)Cc2cccc(OCC(O)CN3CCN(c4ccccn4)CC3)c2O1 (stereo unspecified)
Result: -0.624

----------
Procedure summary: inhibitors of TNFa-induced NFkB p65 translocation, primary screen, imaging, HUVEC, MLSMR starter and 10KST1 sets (AID 438);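 further: compound added about 3h40 before a 20 min TNFalpha stimulation; signal is the nuclear over cytoplasmic p65 intensity ratio per well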
Condition info: HUVEC TNFa-induced p65 nuclear translocation; at 2 µM, stronger effect = higher value, 0% TNFa-plus-vehicle, 100% no-TNFa wells
Measurement type: inhibition (%)
// return numeric value only (unit: %, not printed)

Please review the following examples before continuing.
Compound	Reading unit	Numeric value
CC(=O)NC(Cc1c[nH]c2ccccc12)C(=O)OCC(=O)Nc1cc(C)on1 (configuration not stated)	%	9.6
Cc1nc2ccc(CCO)cc2s1	%	8
Cc1oc(-c2ccccc2Cl)nc1CSCC(=O)N1CCCC1	%	9.3
CCCCn1c(NCc2ccccc2O)nc2ccccc21	%	-6.4

Q: Fill in inhibition for record COc1ccc2[nH]c(=O)c(CN(CC3CCCO3)C(=O)Nc3ccc(F)cc3)cc2c1 (configuration not stated)
Result: 3

Q: Fill in inhibition for record CCOC(=O)C1CCCN(Cc2nc(N)nc(Nc3ccc(C)cc3)n2)C1 (configuration not stated)
Result: 1

----------
Target desc: Alpha-2C adrenergic receptor (Homo sapiens)
Procedure summary: compounds altering alpha2C-coupled GIRK flux – cell-based, HEK293 alpha2C/GIRK1/2, thallium flux, primary screen (AID 624);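 further: slope of fluorescence ratio to pre-addition baseline per second over 15 to 24 s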
Condition info: thallium flux BTC fluorescence, at 10 µM, actives lie on both sides
// reported slope per item
Number only, please.

Molecule	Target desc	Measurement type	Numeric value
CSc1oc(-c2ccccc2)nc1S(=O)(=O)c1ccc(F)cc1	Alpha-2C adrenergic receptor (Homo sapiens)	slope	0.00494

Q: Fill in slope for record CCOC(=O)C1=C(C)OC(N)=C(C#N)C1c1ccoc1 (stereo unspecified)
Result: 0.00431

Q: Fill in slope for record c1ccc(-c2nnc(CSc3nncs3)o2)cc1
Result: 0.00275

Q: Fill in slope for record CCN(CC)S(=O)(=O)c1ccc(S(=O)(=O)N(Cc2ccccn2)Cc2ccco2)cc1
Result: 0.00512

Q: Fill in slope for record Brc1ccc(-c2csc(/N=C/N3CCOCC3)n2)cc1
Result: 0.00566

Q: Fill in slope for record COc1ccccc1N(CC(=O)NCc1ccccn1)S(C)(=O)=O
Result: 0.00261

Q: Fill in slope for record Cc1cccc(N2C(=O)CC(Sc3nc(C)c4c(n3)CCCC4)C2=O)c1 (stereo unspecified)
Result: 0.00308

Q: Fill in slope for record Cc1ccc(NC(=O)CSc2nnc(Cc3cccn3C)n2-c2ccc(F)cc2)cc1
Result: 0.00658
